Provenance of the data: ChEMBL document CHEMBL2311416

As a worked illustration, we turn to pIC50 data collected for Serine/threonine-protein kinase B-raf (Homo sapiens).
As a rule, pIC50 stands for the negative log10 of the concentration, concentration in M.

Record summary for `Nc1ncc(-c2cccnc2)c2scc(-c3cccc(NC(=O)Nc4c(F)cccc4F)c3)c12` : reported pIC50 = 7.71

Record summary for `Cc1noc(C)c1NC(=O)Nc1cccc(-c2csc3c(-c4cccnc4)cnc(N)c23)c1` : reported pIC50 = 6.16

Record summary for `Nc1ncc(-c2cccnc2)c2scc(-c3cccc(NC(=O)Nc4cc(C(F)(F)F)ccc4F)c3)c12` : reported pIC50 = 7.67

Record summary for `Nc1ncc(-c2cccnc2)c2scc(-c3cccc(NC(=O)Nc4ccc(C(F)(F)F)cc4)c3)c12` : reported pIC50 = 7.60

Record summary for `Nc1ncc(-c2cccnc2)c2scc(-c3cccc(NC(=O)C4CCCCC4)c3)c12` : reported pIC50 = 5.81

Record summary for `Nc1ncc(-c2cccnc2)c2scc(-c3cccc(NC(=O)NCc4ccccc4)c3)c12` : reported pIC50 = 7.68

Record summary for `Nc1ncc(-c2cccnc2)c2scc(-c3cccc(NC(=O)NC4CCCCC4)c3)c12` : reported pIC50 = 7.51

Record summary for `Nc1ncc(-c2cccnc2)c2scc(-c3cccc(NC(=O)c4ccccc4)c3)c12` : reported pIC50 = 7.03
